The entries below are paired with their reported IC90, neutralisation of SARS-CoV-2 pseudovirus in HEK293T-ACE2 cells.
measurementTarget: recombinant SARS-CoV-2 RBD (Sino Biological) (SARS-CoV-2, UniProt P0DTC2)
measurementNotes: cell-based or functional assay
assayReadout: IC90, neutralisation of SARS-CoV-2 pseudovirus in HEK293T-ACE2 cells

- binder: "B8-mIgA2 (antibody, V domains shown) VH: EVQLVQSGAEVKKPGSSVKVSCKASGGTFSNYGISWVRQAPGQGLEWMGRILPTFGTANSAQKFQGRVTITADESTGTAYMELRSLRSEDTAVYYCAKEGLAFLGYGMDVWGQGTTVTVSS VL: EIVLTQSPGTLSLSPGERATLSCRASQSVSSYLAWYQQKPGQAPRLLIYDASNRATGIPARFIGSGSGTDFTLTISSLEPEDFAVYFCQQRSNWPLTFGGGTKVEIK"
  value: "0.014 µg/mL"
- binder: "B8-mIgA1 (antibody, V domains shown) VH: EVQLVQSGAEVKKPGSSVKVSCKASGGTFSNYGISWVRQAPGQGLEWMGRILPTFGTANSAQKFQGRVTITADESTGTAYMELRSLRSEDTAVYYCAKEGLAFLGYGMDVWGQGTTVTVSS VL: EIVLTQSPGTLSLSPGERATLSCRASQSVSSYLAWYQQKPGQAPRLLIYDASNRATGIPARFIGSGSGTDFTLTISSLEPEDFAVYFCQQRSNWPLTFGGGTKVEIK"
  value: "0.052 µg/mL"
- binder: "B8-dIgA1 (antibody, V domains shown) VH: EVQLVQSGAEVKKPGSSVKVSCKASGGTFSNYGISWVRQAPGQGLEWMGRILPTFGTANSAQKFQGRVTITADESTGTAYMELRSLRSEDTAVYYCAKEGLAFLGYGMDVWGQGTTVTVSS VL: EIVLTQSPGTLSLSPGERATLSCRASQSVSSYLAWYQQKPGQAPRLLIYDASNRATGIPARFIGSGSGTDFTLTISSLEPEDFAVYFCQQRSNWPLTFGGGTKVEIK"
  value: "0.033 µg/mL"
- binder: "B8-dIgA2 (antibody, V domains shown) VH: EVQLVQSGAEVKKPGSSVKVSCKASGGTFSNYGISWVRQAPGQGLEWMGRILPTFGTANSAQKFQGRVTITADESTGTAYMELRSLRSEDTAVYYCAKEGLAFLGYGMDVWGQGTTVTVSS VL: EIVLTQSPGTLSLSPGERATLSCRASQSVSSYLAWYQQKPGQAPRLLIYDASNRATGIPARFIGSGSGTDFTLTISSLEPEDFAVYFCQQRSNWPLTFGGGTKVEIK"
  value: "0.021 µg/mL"
